# PROCEDURE DETAILS: basal S. cerevisiae growth modulation, no modifier, primary screen, OD600, strain BY4716, 24 h, basal condition (AID 1173)
# COND: OD600, 24 h, higher = more signal, called active from +8 up or from −8 down
REPORTED METRIC: z-score
Form rule: numeric answer, no unit written next to it.

# count of solved cases: 5
COC(=O)C(CC#Cc1ccc2c(c1)[C@]1(C(=O)N2)[C@H](c2ccc(OCCO)cc2)N2[C@H](c3ccccc3)[C@H](c3ccccc3)OC(=O)[C@H]2[C@@H]1C(N)=O)C(=O)OC :: 1.17
COCCOC(=O)N1C(=O)[C@@]2(c3cc(C#CCNC(N)=O)ccc31)[C@H](C(=O)N1CCN(c3ncccn3)CC1)[C@H]1C(=O)O[C@H](c3ccccc3)[C@H](c3ccccc3)N1[C@@H]2c1ccc(O)cc1 :: -0.171
O=C1C2C=CC(C(O)C(c3ccccc3)c3ccccc3)N(Nc3ccccc3F)C2C(=O)N1c1ccccc1 (configuration not stated) :: -0.704
C=C(C(=O)CC[C@H](OC(=O)c1ccccc1-c1ccccc1C(=O)O)c1ccc(OCCO)cc1)C(C)C :: -1.02
CC(C)c1ccc(NN2C(C(O)C(C)c3ccccc3)C=CC3C(=O)N(c4ccccc4)C(=O)C32)cc1 (configuration not stated) :: 0.0145

// returns reported z-score for input "CC(C)[Si](C#Cc1ccccc1)(O[C@H](c1ccccc1)c1cn(Cc2ccccc2)nn1)C(C)C"
-16.7

Repeat with "CC(C)N1C(=O)[C@@]2(Cc3ccccc31)c1ccccc1C(=O)N(Cc1ccccc1C(F)(F)F)[C@H]2c1ccc(CO)cc1"
0.407

The origin of these recorded values is PubChem BioAssay.
